Organism: Rattus norvegicus
Assay notes: Convulsant activity in Sprague-Dawley rat assessed as partial pressure in atmosphere at which convulsion takes place
Format: functional
Listed here are molecules together with their documented log(1/CON).

C1CCCCCCC1 :: 2.82
FC1(F)C(F)(F)C(F)(F)C1(F)F :: 0.01
FC(F)(Cl)OC(F)(F)C(F)(Cl)Cl :: 1.52
FCOC(F)(F)C(C(F)(F)F)C(F)(F)F :: 1.43
C1CCCCC1 :: 1.66
FC1(F)C(F)(F)[C@@](F)(Cl)[C@@]1(F)Cl :: 1.41
CCCCC :: 1.16
FC(F)(Cl)C(F)(Cl)Cl :: 1.36
FC(F)(F)C(F)(F)C(F)(F)C(F)(F)Br :: 0.59

# next molecule below
Exercise: Which log(1/CON) is reported for this molecule? FC(F)(Cl)C(F)(Cl)C(F)(Cl)C(F)(F)Cl (stereo not given)
Key: 2.52

====

Organism: Rattus norvegicus
Assay notes: Convulsant activity in Sprague-Dawley rat assessed as partial pressure in atmosphere at which convulsion takes place
Type: functional
Please use 1 whenever log(1/CON) is not below 1, and 0 whenever it is.

// below: answered compounds
FC(F)(Cl)C(F)(F)Cl :: 0
FC(F)(F)COCC(F)(F)F :: 1
FC(F)C(F)(F)C(F)(F)C(F)(F)F :: 0
FC(F)(F)COC(F)(F)Cl :: 1
FC(F)(F)C(F)(F)Br :: 0
FC(F)(F)C(F)(Cl)C(F)(Cl)C(F)(F)F (configuration not stated) :: 1

API: the following record is the query input.
Exercise: API: above_or_equal(metric=log(1/CON), cutoff=1) for item FC(F)OC(F)(Cl)C(F)(F)F (configuration not stated)
Key: 0

====

Organism: Rattus norvegicus
Assay notes: Convulsant activity in Sprague-Dawley rat assessed as partial pressure in atmosphere at which convulsion takes place
Type: functional
Overview of reported log(1/CON) across a group of compounds:
Answer field: number only, no words.

FC(F)(F)c1cc(C(F)(F)F)cc(C(F)(F)F)c1 :: 1.85

Exercise: Given the entry FC(F)(F)C(F)(F)C(F)(F)Br , report its measured log(1/CON).
Key: 0.03

Exercise: Quick one: log(1/CON) of Fc1c(F)c(F)c(C(F)(F)F)c(F)c1F [PERFLUOROTOLUENE] ?
Key: 3.46

====

Species on record: Rattus norvegicus
Assay notes: Convulsant activity in Sprague-Dawley rat assessed as partial pressure in atmosphere at which convulsion takes place
Type: functional
The following ranges of log(1/CON) define the classes used here: bottom range: < 0.7; center range: ≥ 0.7 and < 2; top range: ≥ 2

// below: answered compounds
C1CCCCCC1 :: top range
COC(F)(F)C(F)(C(F)(F)F)C(F)(F)F :: bottom range
FC(F)(Cl)C(F)(Cl)C(F)(F)Cl :: center range
Fc1ccc(F)cc1 :: top range
FC(F)(F)C(F)(F)C(F)(F)F :: bottom range

Exercise: Hello team, could you let me know which band the following compound falls into: FC(F)(Br)Br
Key: center range

Exercise: Which of the defined bands does the recorded log(1/CON) of FC(F)(Br)C(F)(F)C(F)(F)C(F)(F)Br sit within?
Key: center range

Exercise: Bin? FC(F)(F)C(F)(F)Cl
Key: bottom range

Exercise: Band of FC(F)(F)C(F)(Cl)C(F)(F)F ?
Key: bottom range

Exercise: Each compound maps to one class by log(1/CON). Which class for FC1(F)C(F)(F)[C@@](F)(Cl)[C@]1(F)Cl (relative stereo) ?
Key: center range

Exercise: Class for FC(F)(Cl)OC(Cl)(Cl)C(F)(F)F ?
Key: center range

Exercise: Band assignment needed for COC(F)(F)C(F)(F)C(F)(F)C(F)(F)F please.
Key: bottom range

====

Species: Rattus norvegicus
Assay notes: Convulsant activity in Sprague-Dawley rat assessed as partial pressure in atmosphere at which convulsion takes place
Assay type: functional
Label 1 (yes) when log(1/CON) is strictly below 2; otherwise label 0 (no).

Please review the following examples before continuing.
FC(F)(Cl)OC(F)(F)C(F)(F)Cl :: 1 (yes)
FC(C(F)C(F)(F)C(F)(F)C(F)(F)F)C(F)(F)F (stereo unspecified) :: 0 (no)
FC(F)(F)C(F)(Br)C(F)(F)F :: 1 (yes)
CC(F)(F)C(F)(F)F :: 1 (yes)
FC1(F)C(F)(F)C(F)(Cl)C1(F)Cl (racemic) :: 1 (yes)

Exercise: Input FC(F)OC(F)(C(F)F)C(F)(F)F (stereo unspecified) ; condition: log(1/CON) strictly below 2. Does it hold?
Key: 1 (yes)

Exercise: Please indicate whether the reported log(1/CON) of FC(Cl)(Cl)OC(F)(F)C(F)(F)Cl is strictly below 2.
Key: 1 (yes)

Exercise: Strictly below 2 in log(1/CON)? FC(F)C(F)(F)C(F)(F)C(F)(F)C(F)(F)C(F)(F)Br
Key: 1 (yes)

Exercise: Consider the compound FC(F)(F)COC(F)(F)F . Is its log(1/CON) strictly less than 2?
Key: 1 (yes)

Exercise: Lab note: confirm whether the reported log(1/CON) for this compound is below 2, equality not counting. compound: CCCCCCCCC
Key: 0 (no)

Exercise: I wonder whether CCCCCCCC has log(1/CON) below 2. Can you tell?
Key: 0 (no)
